The reported numbers originate from patent US4633014A.

Experiment: in vivo
Conditions: mouse, in vivo, ip
reported.endpoint: LD50 at 240 h

// recorded LD50 at 240 h for CNC(=O)N(CC(C)C(=O)OC)N(C)C (stereo not shown) : 1270 mg/kg

// recorded LD50 at 240 h for `CN(C)N(CCC(N)=O)C(=O)c1ccccc1` : 3150 mg/kg

// recorded LD50 at 240 h for `CC(=O)N(CCC(N)=O)N(C)C` : > 3000 mg/kg

// recorded LD50 at 240 h for COC(=O)CC(C(=O)OC)N(C(=O)Nc1ccccc1)N(C)C (stereo not shown) : 3200 mg/kg

// recorded LD50 at 240 h for COC(=O)C(C)CN(C(=S)Nc1ccccc1)N(C)C (stereo not shown) : 1960 mg/kg

// recorded LD50 at 240 h for `CN(C)N(CCC(N)=O)C(=S)Nc1ccccc1` : 1750 mg/kg

// recorded LD50 at 240 h for CCCCCC(=O)N(CC(C)C(=O)OC)N(C)C (stereo not shown) : 1930 mg/kg
